# test_method_notes: qHTS assay for small molecule agonists of the antioxidant response element (ARE) signaling pathway (AID 743202)
# settings: HepG2 ARE-bla reporter, beta-lactamase FRET, 16 h; series mostly up to 73.3 µM
Inconclusive results are not listed. Calls of active or inactive are those of the source. The call rests on the fitted dose curve; in most records, active means well fitted activation curve with a large enough effect in the signal ratio in the repeat runs (not every such curve was filed as active); inconclusive means weak or mixed curves, or effect the other way; inactive means no such curve, though single readings can be large or run the other way; the % refers to the signal ratio.
readout: outcome

{"columns": ["molecule", "outcome"],
 "data": [
  ["CCCCCCC#N", "inactive"],
  ["CC(C)(Cl)[N+](=O)[O-]", "inactive"],
  ["C=CCN1CC[C@]23c4c5ccc(O)c4O[C@H]2C(=O)CC[C@@]3(O)[C@H]1C5", "inactive"],
  ["C=CC(C)=O", "inactive"],
  ["CC(Cl)C(C)Cl (stereo not drawn)", "inactive"]
]}

// for each molecule below, give its outcome
1. COc1c(C(C)(C)C)cc([N+](=O)[O-])c(C)c1[N+](=O)[O-]
2. CC/C(=N\OC/C=C/Cl)C1=C(O)CC(C2CCOCC2)CC1=O (stereo not drawn)
3. CCCCCCCCCCOC(=O)c1ccccc1C(=O)OCCCCCCCCCC
4. CC1C(=O)C[C@]2(C(C)C)C[C@H]12 (stereo partly drawn)
5. C[N+](C)(C)CCCl
6. C=COC(C)=O
7. CC1(C)[C@H](C=C(Cl)Cl)[C@@H]1C(=O)O[C@@H](C#N)c1cccc(Oc2ccccc2)c1

// result
1. inactive
2. inactive
3. inactive
4. inactive
5. inactive
6. inactive
7. inactive

// query If you can, please state the reported outcome value of Clc1cc(Cl)c(Cl)c(Cl)c1 .
// result inactive

* * *

# system_tested: Thyrotropin receptor (Homo sapiens)
# test_method_notes: qHTS assay to identify small molecule agonists of the thyroid stimulating hormone receptor (TSHR) signaling pathway (AID 1224843); further: nearly all actives have a fitted effect of over 45% in size
# settings: TSHR-HEK293 cells, cAMP HTRF, agonist mode, 30 min; series mostly up to 92.4 µM
Inconclusive results are not listed. Active and inactive are the calls of the source. Calls follow the shape of the full dose curve.
readout: outcome

Please review the following examples before continuing.
{"columns": ["compound", "result"],
 "data": [
  ["Clc1ccc(C2(Cn3cncn3)CC(Br)CO2)c(Cl)c1 (stereo not given)", "inactive"],
  ["Cn1sc(Cl)cc1=O", "inactive"],
  ["NC(=O)CI", "inactive"],
  ["N#CCc1ccccc1", "inactive"],
  ["CCOC(=O)CBr", "inactive"],
  ["O=C1C(=O)c2cccc3cccc1c23", "inactive"],
  ["CCOC(=O)C(Cl)C(C)=O (stereo not given)", "inactive"],
  ["CC/C(=N\\OC/C=C/Cl)C1=C(O)CC(C2CCOCC2)CC1=O (stereo not given)", "inactive"],
  ["O=[Se]=O", "inactive"],
  ["O=[N+]([O-])c1cc(C(F)(F)F)cc([N+](=O)[O-])c1Cl", "inactive"]
]}

// for each compound below, give its outcome
1. CCOC(=O)[C@]1(c2ccccc2)Oc2ccccc2[C@@H]1N
2. c1ccoc1
3. CC(=O)C(C)(C)C
4. Nc1ccc([N+](=O)[O-])cc1[N+](=O)[O-]

// result
1: inactive; 2: inactive; 3: inactive; 4: inactive

// query If you can, please state the reported outcome value of Cl/C=C\Cl .
// result inactive

* * *

# system_tested: Cytochrome P450 2D6 (Homo sapiens) (UniProt P10635)
# Sequence (P10635 whole entry, looked up): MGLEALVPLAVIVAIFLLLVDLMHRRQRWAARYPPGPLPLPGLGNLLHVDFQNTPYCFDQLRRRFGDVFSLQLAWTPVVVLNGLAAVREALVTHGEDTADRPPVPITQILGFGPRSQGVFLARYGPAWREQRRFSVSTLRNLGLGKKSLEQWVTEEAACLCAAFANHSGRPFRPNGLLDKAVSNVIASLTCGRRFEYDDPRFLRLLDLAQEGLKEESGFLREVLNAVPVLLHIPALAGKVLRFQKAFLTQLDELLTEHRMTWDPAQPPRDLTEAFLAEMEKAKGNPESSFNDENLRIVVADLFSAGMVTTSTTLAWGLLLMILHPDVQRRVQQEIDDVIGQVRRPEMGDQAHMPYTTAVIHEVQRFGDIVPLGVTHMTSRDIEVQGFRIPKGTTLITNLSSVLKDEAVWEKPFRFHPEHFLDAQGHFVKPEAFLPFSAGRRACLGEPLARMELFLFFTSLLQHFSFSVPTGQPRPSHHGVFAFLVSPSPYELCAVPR
# test_method_notes: Cytochrome P450 Family 2 Subfamily D Member 6 (CYP2D6) small molecule antagonists: luciferase reporter qHTS assay (AID 1671196); further: nearly all actives have a fitted effect of over 50% in size
# settings: P450-Glo CYP2D6 enzyme assay, luciferin luminescence, 1 h; series mostly up to 115 µM
Results filed as inconclusive are left out. Active and inactive are the calls of the source. Calls follow the shape of the dose curve; as a rule, active = well fitted inhibition curve with a large enough effect in the repeat runs; inconclusive = weak or mixed curves; inactive = no such curve, though single readings can be large or run the other way.
Write down one outcome, taken from yes = active, no = inactive

Below are worked cases with known answers.
{"columns": ["compound", "class_assignment"],
 "data": [
  ["O=C(O)C1(c2ccc3c(c2)OC[C@H](Cc2ccc(-c4ccccc4)cc2)[C@H]3O)CCCC1", "no"],
  ["CO/C=C(/C(=O)OC)c1ccccc1COc1cccc(C(F)(F)F)n1", "yes"],
  ["O=C(O)CC(Cl)C(=O)O (centres undefined)", "no"],
  ["C[C@H]1CNCCc2ccc(Cl)cc21", "yes"],
  ["CC/C(=N\\OC/C=C/Cl)C1=C(O)CC(C2CCOCC2)CC1=O (centres undefined)", "no"]
]}

// query Outcome logged for COP(=O)(OC)O/C(=C/Cl)c1cc(Cl)c(Cl)cc1Cl in this assay:
// result yes

// query Outcome logged for Brc1ccc(Oc2ccccc2)cc1 in this assay:
// result no

// query Outcome logged for COC(N)=O in this assay:
// result no

// query Outcome logged for C=CCC1([C@H](C)CCC)C(=O)NC(=O)NC1=O in this assay:
// result no

// query Outcome logged for Clc1ccc(C(OCCN2CCCCC2)c2ccccc2)cc1 (centres undefined) in this assay:
// result yes

// query Outcome logged for O=[Se]=O in this assay:
// result no

// query Outcome logged for CNC(C)Cc1ccccc1OC (centres undefined) in this assay:
// result yes

// query Outcome logged for CCCCCCCCCC(=O)O[C@H]1CC[C@H]2[C@@H]3CCC4=CC(=O)CC[C@@H]4[C@H]3CC[C@]12C in this assay:
// result no

// query Outcome logged for CC1C(=O)C[C@]2(C(C)C)C[C@H]12 (some centres undefined) in this assay:
// result yes

// query Outcome logged for CCCCC(O)(Cn1cncn1)c1ccc(Cl)cc1Cl (centres undefined) in this assay:
// result yes

// query Outcome logged for CC1CC(CC2CCC(N)C(C)C2)CCC1N (centres undefined) in this assay:
// result yes

// query Outcome logged for CC(=O)[C@H]1CC[C@H]2[C@@H]3CC[C@H]4C[C@](C)(O)CC[C@]4(C)[C@H]3CC[C@]12C in this assay:
// result no

// query Outcome logged for CCCCCCC#N in this assay:
// result yes

// query Outcome logged for CC(C)N(C(=O)COc1nnc(C(F)(F)F)s1)c1ccc(F)cc1 in this assay:
// result no

// query Outcome logged for CCN(C)N=O in this assay:
// result no

// query Outcome logged for Nc1nc(=S)[nH][nH]1 in this assay:
// result yes

// query Outcome logged for COc1nn(CSP(=S)(OC)OC)c(=O)s1 in this assay:
// result yes

// query Outcome logged for CCO[C@H]1O[C@@H]2OC3(C)CC[C@H]4[C@H](C)CC[C@@H]([C@H]1C)[C@@]24OO3 in this assay:
// result no

// query Outcome logged for O=C(NC(=O)c1c(F)cccc1F)Nc1cc(Cl)c(Oc2ncc(C(F)(F)F)cc2Cl)c(Cl)c1 in this assay:
// result no
